test system: NIH3T3; assay: Cytotoxic Profiling of Annotated Libraries Using Quantitative High-Throughput Screening (AID 1296008); conditions: Five cell lines viability, CellTiter-Glo ATP luminescence, 48-72 h; hits give low values; also: % is scaled to controls: 0 for no effect and ±100 for the full control effect; nearly all actives have a fitted effect of over 60% in size
Records with an inconclusive call do not appear.
property measured: max response (%)
Numbers only, in %.

Study these solved cases before continuing.
Exercise: Tell me max response of Cc1c(C)c(NCC(=O)N(C)C2CCN(Cc3ccc(C(N)=O)cc3)CC2)c(C)c(C)c1N when tested on NIH3T3.
Key: 2.96

Exercise: Tell me max response of COc1cnc(-c2ccc(Cn3c(CC(C)(C)C(=O)O)c(SC(C)(C)C)c4cc(OC[C@@H]5Cc6ccccc6N5C(C)=O)ccc43)cc2)nc1 when tested on NIH3T3.
Key: -14.7

Exercise: Tell me max response of COC(=O)C1=COC(OC2OC(CO)C(O)C(O)C2O)C2C(COC(=O)/C=C/c3ccc(O)cc3)C(O)C(O)C12 (stereo unspecified) when tested on NIH3T3.
Key: -5.08

Exercise: Tell me max response of C[C@@H]1O[C@@H](OC[C@H]2O[C@@H](OCc3ccccc3)[C@H](O)[C@@H](O)[C@@H]2O)[C@H](O)[C@H](O)[C@H]1O when tested on NIH3T3.
Key: 0.0365

Exercise: Tell me max response of CC1CC(=O)C2=C(O1)OC1(C)CCC3C(C)(C)C4OC4C(=O)C3(C)C1C2 (stereo unspecified) when tested on NIH3T3.
Key: -0.441

Dear colleague, could you send me max response for each of the items below? Thanks.
1. COC(=O)C(CC1(O)c2ccccc2N2C(=O)C(C)(C)N(O)C21)n1cnc2ccccc2c1=O (stereo unspecified)
2. CC1C2=CC(=O)OC2(O)CC2C1CCC1C(C)(C)CCC(O)C21C (stereo unspecified)
3. C=C1C[C@]23C[C@@]1(O)CC[C@H]2[C@@]12C=C[C@H](O)[C@@](C)(C(=O)O1)[C@H]2[C@@H]3C(=O)O
4. O=C(/C=C/c1ccc(O)cc1)OC[C@H]1O[C@@H](O/C(=C\c2ccccc2)C(=O)O)[C@H](O)[C@@H](O)[C@@H]1O
5. Cc1ncc(NC(=O)c2ccc(CN3CCN(C)CC3)c(C(F)(F)F)c2)cc1Nc1nccc(-c2cccnc2)n1
6. CSC(=O)OCC1=C[C@@H]2OC(=O)C3=CO[C@@H](O[C@@H]4O[C@H](CO)[C@@H](O)[C@H](O)[C@H]4O)[C@H]1[C@@H]32
7. COc1cc(C(O)C2COC(c3ccc(OC4OC(CO)C(O)C(O)C4O)c(OC)c3)C2CO)ccc1O (stereo unspecified)

Key:
1: 2.61; 2: 0.733; 3: 2.3; 4: 4.52; 5: 1.55; 6: 1.53; 7: -19.8

Dear colleague, could you send me max response for each of the items below? Thanks.
1. CCC(C)C(C(=O)O)N1Cc2c(OCC=C(C)C)c(C)c(OC)c(C(=O)O)c2C1=O (stereo unspecified)
2. C=C1CCC(OC(C)=O)C2(C)CC3OC(=O)C(C)=C3CC12 (stereo unspecified)
3. COc1cc(Nc2ccc([N+](=O)[O-])cc2C(=O)O)cc2ccccc12
4. CC1=C(C)C(=O)OC(C(C)C2C(O)CC3C4C5OC5C5(O)CC(OC6OC(CO)C(OC7OC(C)C(O)C(O)C7O)C(O)C6O)CC(O)C5(C)C4CCC32C)C1 (stereo unspecified)

Key:
-10.1
-1.87
-2.53
0.724
